Target: Follistatin-related protein 3 (Homo sapiens) (UniProt O95633)
Sequence (O95633 whole entry, looked up): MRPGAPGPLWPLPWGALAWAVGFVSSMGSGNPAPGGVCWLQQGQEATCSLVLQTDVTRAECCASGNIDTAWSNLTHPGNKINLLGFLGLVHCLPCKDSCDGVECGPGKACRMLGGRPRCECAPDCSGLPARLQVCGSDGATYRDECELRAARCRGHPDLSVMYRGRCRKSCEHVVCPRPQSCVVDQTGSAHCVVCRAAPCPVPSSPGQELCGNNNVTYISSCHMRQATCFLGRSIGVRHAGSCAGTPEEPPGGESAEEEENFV
Experiment: compounds binding follistatin-related protein 3 – biochemical, small-molecule microarray, 635 nm fluorescence, primary screen (AID 1105);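 also: score merges emission near 667 nm and signal to noise per printed spot across three slides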
Conditions: FSTL3 binding, higher = more signal
quantityMeasured: composite z-score

O=C1[C@@H]2[C@@H](CC(COc3ccccc3)=C([C@H](O)CCc3ccccc3)[C@@H]2CO)C(=O)N1Cc1ccccc1: 0.679
COc1ccc(NN2C(C(O)c3ccc(I)cc3)C=CC3C(=O)N(C4CCCCC4)C(=O)C32)cc1 (centres undefined): 1.46
COc1cc(OC)c(C(O)C2C=CC3C(=O)N(c4ccccc4)C(=O)C3N2Nc2ccc(C(C)C)cc2)cc1Br (centres undefined): 0.839
COc1ccc(C#Cc2ccc3c(c2)[C@]2(C(=O)N3)[C@H](C(=O)O)[C@H]3C(=O)O[C@H](c4ccccc4)[C@H](c4ccccc4)N3[C@@H]2c2ccccc2OCCO)cc1: 0.509
CC(C)C(=C=CC[C@H](O)c1ccccc1OCCO)C[C@H](O)COCc1ccccc1: -0.428
O=C1NC(=O)C2C1C=CC(C(O)c1ccc([N+](=O)[O-])cc1)N2Nc1ccccn1 (centres undefined): -0.0907
NC(=O)N1C(=O)C2C(C1=O)C1C=C(CCCO)C2C(c2ccc(CN3CCCC3)cc2)N1Cc1cc2c(cc1Br)OCO2 (centres undefined): -0.0816
CC(C)NC(=O)[C@@H]1c2ccccc2C(=O)N(Cc2ccc(OC(F)(F)F)cc2)[C@H]1c1ccc(CO)cc1: 1.37
CC(C)C[C@H]1NC(=O)C([C@@H](C)OCc2ccccc2)NC(=O)[C@@]23C(=O)N[C@@H](Cc4ccccc4)C2[C@H](C)[C@@]2(C)O[C@H]2C3/C=C/C/C=C\CNC1=O (some centres undefined): 1.47
